target: recombinant human CD3ε/δ heterodimer (human) (UniProt P07766); test: ELISA, coated CD3ε/δ
Sequence (P07766 23-126, stated change not applied, chain 1 of 2): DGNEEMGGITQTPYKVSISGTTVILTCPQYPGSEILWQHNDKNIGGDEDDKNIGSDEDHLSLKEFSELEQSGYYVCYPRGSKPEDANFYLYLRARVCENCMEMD
Sequence (P04234 22-105, stated change not applied, chain 2 of 2, further chain): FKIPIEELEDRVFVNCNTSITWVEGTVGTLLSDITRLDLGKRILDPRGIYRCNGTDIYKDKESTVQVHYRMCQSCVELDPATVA
Assay readout: Absorbance (450 nm)

Binder: G16 (antibody, human IgG1, lambda, L234A L235A, V domains shown) VH: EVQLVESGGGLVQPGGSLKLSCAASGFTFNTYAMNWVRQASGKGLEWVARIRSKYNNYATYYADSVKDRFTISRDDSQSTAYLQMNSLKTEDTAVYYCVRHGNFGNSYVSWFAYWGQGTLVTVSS VL: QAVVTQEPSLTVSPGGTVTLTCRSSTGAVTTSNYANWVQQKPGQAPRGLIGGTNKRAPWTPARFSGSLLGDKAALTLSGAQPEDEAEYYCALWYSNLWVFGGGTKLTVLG
Measurement: 2.48

Binder: B08 (antibody, human IgG1, lambda, L234A L235A, V domains shown) VH: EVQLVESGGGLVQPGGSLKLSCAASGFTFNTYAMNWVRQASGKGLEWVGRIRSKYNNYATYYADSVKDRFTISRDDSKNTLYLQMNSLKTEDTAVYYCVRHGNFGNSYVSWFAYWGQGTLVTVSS VL: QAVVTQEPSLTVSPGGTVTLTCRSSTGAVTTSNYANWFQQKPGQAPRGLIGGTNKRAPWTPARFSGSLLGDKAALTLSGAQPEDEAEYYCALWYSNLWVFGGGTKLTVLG
Measurement: 0.424

Binder: H07 (antibody, human IgG1, lambda, L234A L235A, V domains shown) VH: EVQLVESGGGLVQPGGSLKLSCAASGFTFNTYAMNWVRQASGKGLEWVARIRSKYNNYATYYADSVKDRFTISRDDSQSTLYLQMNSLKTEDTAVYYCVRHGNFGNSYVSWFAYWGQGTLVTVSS VL: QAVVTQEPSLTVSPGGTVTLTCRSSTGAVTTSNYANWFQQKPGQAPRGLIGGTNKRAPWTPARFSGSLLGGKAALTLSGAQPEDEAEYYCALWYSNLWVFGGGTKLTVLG
Measurement: 0.11

Binder: D13 (antibody, human IgG1, lambda, L234A L235A, V domains shown) VH: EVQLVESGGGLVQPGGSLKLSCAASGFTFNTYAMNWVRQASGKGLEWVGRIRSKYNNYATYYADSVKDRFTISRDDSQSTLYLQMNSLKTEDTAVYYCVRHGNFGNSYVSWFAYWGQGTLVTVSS VL: QAVVTQEPSLTVSPGGTVTLTCRSSTGAVTTSNYANWVQQKPGQAPRGLIYGTNKRAPWTPARFSGSLLGGKAALTLSGAQPEDEAEYYCALWYSNLWVFGGGTKLTVLG
Measurement: 0.569
